Hey, just so you know, these numbers are from ChEMBL document CHEMBL4422685.

molecular target: Multidrug efflux pump subunit AcrB (Escherichia coli (strain K12)) (UniProt P31224); assay: Inhibition of AcrB in wild-type drug-resistant Escherichia coli […] assessed as potentiation of erythromycin-induced antimicrobial activity by measuring erythromycin MIC at 8 ug/ml by checkerboard titration method (reference value: 64 ug/ml)
quantity-measured: MIC (µg/mL)

INSERT INTO assay_data (compound_string, quantity_measured, obs_value) VALUES
  ('COc1cccc2cc3c(cc12)C(=O)N(c1ccccc1Cl)C3=O', 'MIC', 64),
  ('COc1cccc2cc3c(cc12)C(=O)N(Cc1ccccc1Cl)C3=O', 'MIC', 64),
  ('COc1cccc2cc3c(cc12)C(=O)N(C)C3=O', 'MIC', 64),
  ('COc1cccc2cc3c(cc12)C(=O)N(C1CCCC1)C3=O', 'MIC', 64),
  ('COc1ccc(CN2C(=O)c3cc4cccc(OC)c4cc3C2=O)cc1', 'MIC', 64),
  ('CCCCCCN1C(=O)c2cc3cccc(OC)c3cc2C1=O', 'MIC', 64),
  ('COc1cccc2cc3c(cc12)C(=O)N(C(C)C)C3=O', 'MIC', 32),
  ('COc1ccccc1CN1C(=O)c2cc3cccc(OC)c3cc2C1=O', 'MIC', 64),
  ('CCCCCN1C(=O)c2cc3cccc(OC)c3cc2C1=O', 'MIC', 64),
  ('COc1cccc2cc3c(cc12)C(=O)N(C(C)(C)C)C3=O', 'MIC', 64),
  ('CCc1ccccc1N1C(=O)c2cc3cccc(OC)c3cc2C1=O', 'MIC', 64),
  ('COc1cccc2cc3c(cc12)C(=O)N(Cc1ccccc1)C3=O', 'MIC', 32);

====

target: Multidrug efflux pump subunit AcrB (Escherichia coli (strain K12)); assay: Inhibition of AcrB in wild-type drug-resistant Escherichia coli […] assessed as potentiation of erythromycin-induced antimicrobial activity by measuring erythromycin MIC at 16 ug/ml by checkerboard titration method (reference value: 64 ug/ml)
quantity-measured: MIC (µg/mL)

INSERT INTO measurements (compound_string, quantity_measured, obs_value) VALUES
  ('CCCCCCN1C(=O)c2cc3cccc(OC)c3cc2C1=O', 'MIC', 32),
  ('COc1cccc2cc3c(cc12)C(=O)N(C(C)(C)C)C3=O', 'MIC', 64),
  ('COc1cccc2cc3c(cc12)C(=O)N(C)C3=O', 'MIC', 64),
  ('COc1cccc2cc3c(cc12)C(=O)N(c1ccccc1Cl)C3=O', 'MIC', 64),
  ('COc1ccccc1CN1C(=O)c2cc3cccc(OC)c3cc2C1=O', 'MIC', 64),
  ('COc1cccc2cc3c(cc12)C(=O)N(C(C)C)C3=O', 'MIC', 32),
  ('COc1cccc2cc3c(cc12)C(=O)N(C1CCCC1)C3=O', 'MIC', 64),
  ('COc1cccc2cc3c(cc12)C(=O)N(Cc1ccccc1)C3=O', 'MIC', 32),
  ('CCc1ccccc1N1C(=O)c2cc3cccc(OC)c3cc2C1=O', 'MIC', 64),
  ('COc1ccc(CN2C(=O)c3cc4cccc(OC)c4cc3C2=O)cc1', 'MIC', 32),
  ('CCCCCN1C(=O)c2cc3cccc(OC)c3cc2C1=O', 'MIC', 64),
  ('COc1cccc2cc3c(cc12)C(=O)N(Cc1ccccc1Cl)C3=O', 'MIC', 64);

====

Attribute: MIC
molecular target: Multidrug efflux pump subunit AcrB (Escherichia coli (strain K12)); experiment: Inhibition of AcrB in wild-type drug-resistant Escherichia coli […] assessed as potentiation of levofloxacin-induced antimicrobial activity by measuring levofloxacin MIC at 32 ug/ml by checkerboard titration method (reference value: 0.063 ug/ml)
quantity-measured: MIC (µg/mL)

INSERT INTO results (compound_string, quantity_measured, obs_value) VALUES
  ('COc1cccc2cc3c(cc12)C(=O)N(C(C)C)C3=O', 'MIC', 0.063),
  ('COc1cccc2cc3c(cc12)C(=O)N(Cc1ccccc1Cl)C3=O', 'MIC', 0.063),
  ('COc1cccc2cc3c(cc12)C(=O)N(C1CCCC1)C3=O', 'MIC', 0.063),
  ('CCCCCCN1C(=O)c2cc3cccc(OC)c3cc2C1=O', 'MIC', 0.063),
  ('COc1cccc2cc3c(cc12)C(=O)N(Cc1ccccc1)C3=O', 'MIC', 0.063),
  ('COc1cccc2cc3c(cc12)C(=O)N(C)C3=O', 'MIC', 0.0313),
  ('COc1ccccc1CN1C(=O)c2cc3cccc(OC)c3cc2C1=O', 'MIC', 0.0039),
  ('CCCCCN1C(=O)c2cc3cccc(OC)c3cc2C1=O', 'MIC', 0.063),
  ('COc1cccc2cc3c(cc12)C(=O)N(c1ccccc1Cl)C3=O', 'MIC', 0.063),
  ('CCc1ccccc1N1C(=O)c2cc3cccc(OC)c3cc2C1=O', 'MIC', 0.0313),
  ('COc1ccc(CN2C(=O)c3cc4cccc(OC)c4cc3C2=O)cc1', 'MIC', 0.063),
  ('COc1cccc2cc3c(cc12)C(=O)N(C(C)(C)C)C3=O', 'MIC', 0.063);

====

target: Multidrug efflux pump subunit AcrB (Escherichia coli (strain K12)); assay: Inhibition of AcrB in wild-type drug-resistant Escherichia coli […] assessed as potentiation of levofloxacin-induced antimicrobial activity by measuring levofloxacin MIC at 128 ug/ml by checkerboard titration method (reference value: 0.063 ug/ml)
quantity-measured: MIC (µg/mL)

INSERT INTO results (compound_string, quantity_measured, output_unit, obs_value) VALUES
  ('CCc1ccccc1N1C(=O)c2cc3cccc(OC)c3cc2C1=O', 'MIC', 'µg/mL', 0.0313),
  ('COc1cccc2cc3c(cc12)C(=O)N(Cc1ccccc1Cl)C3=O', 'MIC', 'µg/mL', 0.063),
  ('COc1cccc2cc3c(cc12)C(=O)N(C1CCCC1)C3=O', 'MIC', 'µg/mL', 0.063),
  ('COc1cccc2cc3c(cc12)C(=O)N(C(C)(C)C)C3=O', 'MIC', 'µg/mL', 0.063),
  ('COc1ccc(CN2C(=O)c3cc4cccc(OC)c4cc3C2=O)cc1', 'MIC', 'µg/mL', 0.063),
  ('COc1ccccc1CN1C(=O)c2cc3cccc(OC)c3cc2C1=O', 'MIC', 'µg/mL', 0.0019);

====

Listed compounds paired with reported MIC
Target: Multidrug efflux pump subunit AcrB (Escherichia coli (strain K12))
Sequence (whole entry): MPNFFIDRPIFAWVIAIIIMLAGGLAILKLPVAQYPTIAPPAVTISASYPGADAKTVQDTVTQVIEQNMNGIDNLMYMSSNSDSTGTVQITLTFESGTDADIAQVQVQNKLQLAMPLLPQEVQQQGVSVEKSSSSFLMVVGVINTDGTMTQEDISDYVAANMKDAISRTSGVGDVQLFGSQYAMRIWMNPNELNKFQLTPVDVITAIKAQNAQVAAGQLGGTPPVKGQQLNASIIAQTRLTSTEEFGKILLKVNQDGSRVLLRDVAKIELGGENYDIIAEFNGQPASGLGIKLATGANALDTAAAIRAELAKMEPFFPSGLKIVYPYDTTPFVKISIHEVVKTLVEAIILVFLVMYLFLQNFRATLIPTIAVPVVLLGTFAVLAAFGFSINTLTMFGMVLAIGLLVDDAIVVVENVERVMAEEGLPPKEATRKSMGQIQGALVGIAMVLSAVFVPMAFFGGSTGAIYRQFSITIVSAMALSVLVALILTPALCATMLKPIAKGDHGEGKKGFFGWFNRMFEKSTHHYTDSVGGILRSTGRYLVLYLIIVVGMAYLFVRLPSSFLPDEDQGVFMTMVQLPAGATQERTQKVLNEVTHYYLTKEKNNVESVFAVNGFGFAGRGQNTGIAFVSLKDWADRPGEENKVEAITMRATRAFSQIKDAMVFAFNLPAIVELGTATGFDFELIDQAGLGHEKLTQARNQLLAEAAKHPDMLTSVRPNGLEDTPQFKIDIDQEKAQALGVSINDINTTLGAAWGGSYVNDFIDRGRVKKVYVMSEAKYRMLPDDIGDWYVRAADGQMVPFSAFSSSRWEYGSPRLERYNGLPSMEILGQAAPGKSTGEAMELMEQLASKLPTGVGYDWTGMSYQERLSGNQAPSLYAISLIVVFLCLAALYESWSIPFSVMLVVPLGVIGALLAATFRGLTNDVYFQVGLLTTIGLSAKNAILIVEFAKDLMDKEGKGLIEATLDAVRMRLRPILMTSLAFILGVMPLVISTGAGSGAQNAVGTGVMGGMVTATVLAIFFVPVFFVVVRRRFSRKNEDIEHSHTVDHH
Assay: Inhibition of AcrB in wild-type drug-resistant Escherichia coli […] assessed as potentiation of levofloxacin-induced antimicrobial activity by measuring levofloxacin MIC at 128 ug/ml by checkerboard titration method (reference value: 0.063 ug/ml)
quantity-measured: MIC

INSERT INTO measurements (compound_string, obs_value) VALUES
  ('CCCCCN1C(=O)c2cc3cccc(OC)c3cc2C1=O', '0.0313 µg/mL'),
  ('CCCCCCN1C(=O)c2cc3cccc(OC)c3cc2C1=O', '0.0313 µg/mL'),
  ('COc1cccc2cc3c(cc12)C(=O)N(C(C)C)C3=O', '0.0313 µg/mL'),
  ('COc1cccc2cc3c(cc12)C(=O)N(C)C3=O', '0.0313 µg/mL'),
  ('COc1cccc2cc3c(cc12)C(=O)N(Cc1ccccc1)C3=O', '0.063 µg/mL'),
  ('COc1cccc2cc3c(cc12)C(=O)N(c1ccccc1Cl)C3=O', '0.063 µg/mL');
